# System: PC-3 prostate
# EXPERIMENT_DESCRIPTION: NCI tumour cell line growth inhibition, 48 h
MEASUREMENT_KIND: TGI

Below, 5 molecules whose answers are already recorded.
MOLECULE	TGI
CCOC1Oc2ccccc2C(=O)/C1=C\Nc1ccc(C(=O)O)c(O)c1 (centres undefined)	> 100 µM
S=C1C(CCCOCc2ccccc2)C2CCCC23CC2(CCN13)OCCS2 (centres undefined)	> 10 µM
CCCn1cc(/C=N\N=C2\C(=O)Nc3ccc(C)cc32)c2ccccc21	5.17 µM
CCc1nc(N)nc(N)c1-c1ccc(N(C)Cc2ccccc2)c([N+](=O)[O-])c1	16.6 µM
CCOC(OCC)[C@@H]1C[C@@H]2N(O[C@H](OC3CCCC3(c3ccccc3)c3ccccc3)[C@H](OC(C)=O)[C@@]2(CC)Cc2ccc(OC)c(OC)c2)O1 (some centres undefined)	> 100 µM

TGI for CCc1c2c(nc3ccc(OC(=O)OCc4ccc(B5OC(C)(C)C(C)(C)O5)cc4)cc13)-c1cc3c(c(=O)n1C2)COC(=O)[C@]3(O)CC ?
> 100 µM

TGI for CN(C)c1ccc(/C=N/n2c(CCCCc3n[nH]c(=S)n3/N=C/c3ccc(N(C)C)cc3)n[nH]c2=S)cc1 ?
> 100 µM

TGI for CSc1c(S(C)=O)c2ccccc2n1C (centres undefined) ?
> 100 µM

TGI for O=C(/C=C/c1ccc(Cl)cc1)c1nc2ccccc2[nH]1 ?
> 100 µM
